Target: c-Met (cytoplasmic domain) (Homo sapiens)
Construct: 10 ng/mL c-Met (cytoplasmic domain, Invitrogen Corporation #PV3143); purchased Invitrogen Corporation PV3143
Sequence (P08581 956-1390 limits assumed): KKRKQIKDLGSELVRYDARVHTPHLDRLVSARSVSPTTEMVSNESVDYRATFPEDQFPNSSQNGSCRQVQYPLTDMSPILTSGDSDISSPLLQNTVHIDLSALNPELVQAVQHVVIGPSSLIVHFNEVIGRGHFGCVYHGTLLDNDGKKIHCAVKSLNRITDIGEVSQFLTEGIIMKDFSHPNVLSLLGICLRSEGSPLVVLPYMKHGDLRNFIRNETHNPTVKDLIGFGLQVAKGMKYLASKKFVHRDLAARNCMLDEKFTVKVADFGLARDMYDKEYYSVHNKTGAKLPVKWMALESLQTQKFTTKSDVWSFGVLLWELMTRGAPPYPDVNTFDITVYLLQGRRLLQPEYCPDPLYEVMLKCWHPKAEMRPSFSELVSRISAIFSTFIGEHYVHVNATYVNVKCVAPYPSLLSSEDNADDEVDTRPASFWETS
Assay: c-Met Kinase Assay (same methods as for ALK, with modifications)
Assay type: biochemical
Conditions: c-Met kinase inhibition, 1 μM ATP; read-out: cMet Activity
propertyMeasured: IC50

Ask: # query: IC50 | item COc1cc2c(cc1Nc1ncc(Cl)c(N[C@@H]3CCCC[C@H]3NS(C)(=O)=O)n1)CCN(CC(=O)N1CCOCC1)CC2 [Example 1528] | system: c-Met (cytoplasmic domain) (Homo sapiens)
Result: > 10 µM

Ask: Field: IC50 (c-Met (cytoplasmic domain) (Homo sapiens)). Entry: O=C1CCCc2ccc(Nc3ncc(Cl)c(Nc4ccccc4S(=O)(=O)N4CCC(O)C4)n3)cc2N1 (centres unmarked) [Example 1493]
Result: < 0.1 µM

Ask: Reported IC50 for c-Met (cytoplasmic domain) (Homo sapiens), given COCCOc1cccc(F)c1Nc1nc(Nc2ccc3c(c2)CCN(CCOC)CC3)ncc1Cl [Example 1696] ?
Result: 0.1 to 1 µM

Ask: Request body: readout IC50, system c-Met (cytoplasmic domain) (Homo sapiens), query CNC(=O)c1ccccc1Nc1nc(Nc2ccc3c(c2)N(C)CCCO3)ncc1Cl [Example 1708] . Return the value.
Result: < 0.1 µM

Ask: Give the reported IC50 for COCCN1C(=O)CCC(C)(C)c2ccc(Nc3ncc(Cl)c(Nc4ccccc4OCC#N)n3)cc21 [Example 1582] (system: c-Met (cytoplasmic domain) (Homo sapiens)).
Result: 0.1 to 1 µM

Ask: c-Met (cytoplasmic domain) (Homo sapiens) / IC50 / COc1cc2c(cc1Nc1ncc(Cl)c(Nc3ccc(N4CCOCC4)cc3OC)n1)CCOC(=O)N2C [Example 1506] : value?
Result: > 10 µM

Ask: GET /values?readout=IC50&system=c-Met (cytoplasmic domain) (Homo sapiens)&item= CNCc1ccccc1Nc1nc(Nc2ccc3c(c2)CCOC(=O)N3C)ncc1Cl [Example 1791]
Result: 1 to 10 µM

Ask: Recall the recorded IC50 for CNC(=O)c1ccccc1Nc1nc(Nc2ccc3c(c2)CC(=O)NCC3)ncc1Cl [Example 1811] with c-Met (cytoplasmic domain) (Homo sapiens) and state it.
Result: < 0.1 µM
